Where these numbers come from: PubChem BioAssay (NCI)

test system: HCT-15 colon; assay: NCI tumour cell line growth inhibition, 48 h
experimentalEndpoint: TGI

Answered cases to consult:
compound	TGI
CC(c1ccc2c(c1)CCC1C2CC2OC23CC=CC(=O)[C@]13C)C1C[C@]2(C)O[C@]2(C)[C@H](O)O1 (stereo partly specified)	> 100 µM
CC(=O)c1cc2c(s1)C(=O)c1sccc1C2=O	0.0534 µM
CC1=NN(C(=O)Nc2ccc(Cl)cc2)C(=O)C2CCC(=O)N12 (stereo unspecified)	44.2 µM
COC(=O)[C@]12CC[C@@H](C)[C@H](C)[C@@H]1C1=CC[C@@H]3[C@@]4(C)C[C@@H](OC(=O)/C=C/c5ccccc5)[C@H](O)[C@@](C)(CO)[C@@H]4[C@H](O)C[C@@]3(C)[C@]1(C)CC2	4.02 µM
CN(CC(=O)O)Cc1c(O)c(Cl)cc(Cl)c1Cl	> 100 µM
O=c1[nH]c(=O)n(C2CC(O)C(CO)O2)cc1C(F)(C(F)(F)F)C(F)(F)F (stereo unspecified)	> 100 µM
CC(C)(C)c1ccc2c(c1)C#Cc1cc(C(C)(C)C)ccc1OCCCO2	> 100 µM
CN(C)CCC(CCN(C)C)=NO	> 100 µM

QUERY: Report the value of TGI obtained on HCT-15 colon for CC(C)CCNC(=O)C(CC(C)C)NC(=O)[C@H]1O[C@@H]1C(=O)O (stereo partly specified) .
RESULT: > 100 µM

QUERY: Report the value of TGI obtained on HCT-15 colon for "COc1c(/C=C/C=O)cc2c(c1OC)OCO2" .
RESULT: 40.2 µM

QUERY: Report the value of TGI obtained on HCT-15 colon for COC1=C(C)C(=O)c2c(c(CCCl)c3n2CCC3OC(C)=O)C1=O (stereo unspecified) .
RESULT: 2.35 µM

QUERY: Report the value of TGI obtained on HCT-15 colon for COc1ccc(C2CC(c3ccc(Nc4ccnc5cc(Cl)ccc45)cc3)=NN2C=O)cc1 (stereo unspecified) .
RESULT: > 100 µM

QUERY: Report the value of TGI obtained on HCT-15 colon for CC(C)CCCC(C)[C@H]1CC[C@H]2n3c(nc4ccccc43)CCC[C@]12C (stereo partly specified) .
RESULT: 33.4 µM

QUERY: Report the value of TGI obtained on HCT-15 colon for "O=[N+]([O-])c1ccc(N/N=C2/CC3=C2CCCCCCCCCC3)c([N+](=O)[O-])c1" .
RESULT: > 100 µM

---

system: NCI-H460 lung; assay: NCI tumour cell line growth inhibition, 48 h
experimentalEndpoint: TGI

Answered cases to consult:
> print(dat)
                                   molecule   testedsystem  experimentalendpoint  experimentalvalue
1  O=Nc1c(-c2c(O)[nH]c3cc(Br)ccc23)[nH]c2ccccc12  NCI-H460 lung                   TGI            7.57 µM
2  CCOC(=O)C1(C#N)C(=O)c2cc[n+](CC[n+]3ccc4c(c3)C(=O)C(C#N)(C(=O)OCC)C4=O)cc2C1=O (centres undefined)  NCI-H460 lung                   TGI           > 100 µM
3     O=C(O)C1(Cc2ccccc2)Cc2cc3c(cc2C1)CCC3  NCI-H460 lung                   TGI           > 100 µM

QUERY: State its TGI for this molecule: "COc1cc([N+](=O)[O-])c(OC)cc1-c1nc2sc(C)cn2c1/C(N)=N/C(=N)N"
RESULT: > 100 µM
